Data provenance: patent US20070155720A1

targetUnderTest: alpha2 adrenergic receptors
procedureText: Binding site screen, alpha2 adrenergic receptors
pIC50: −log10 of the molar value.
measure: pIC50

For this molecule ( Cl.Oc1cc2c(cc1O)[C@@H]1c3ccccc3CN[C@H]1CC2 (relative stereo) [Compound 6a, hydrochloride] ), measured pIC50 is ~6.64

====

targetUnderTest: D1 receptors (Rattus norvegicus, UniProt P18901)
Construct: utilizing rat brain striatal homogenates having D1 and D2 receptors; from tissue; host or cells: rat brain striatum homogenate
Sequence (P18901 whole entry): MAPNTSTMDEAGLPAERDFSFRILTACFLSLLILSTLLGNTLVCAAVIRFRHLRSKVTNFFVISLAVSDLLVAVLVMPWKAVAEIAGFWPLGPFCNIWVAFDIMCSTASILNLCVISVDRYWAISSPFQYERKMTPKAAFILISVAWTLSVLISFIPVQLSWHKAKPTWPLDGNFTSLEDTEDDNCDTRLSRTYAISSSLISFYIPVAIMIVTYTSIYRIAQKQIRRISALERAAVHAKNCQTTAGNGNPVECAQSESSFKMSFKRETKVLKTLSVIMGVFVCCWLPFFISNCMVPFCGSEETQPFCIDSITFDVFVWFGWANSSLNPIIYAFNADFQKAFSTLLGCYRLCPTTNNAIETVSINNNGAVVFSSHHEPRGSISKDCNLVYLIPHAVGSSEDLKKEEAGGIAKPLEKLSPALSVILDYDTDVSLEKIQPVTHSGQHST
procedureText: Affinity for D1 receptors in rat brain striatal homogenates labeled with 3H-SCH 23390
Format: binding
assaySetup: rat brain striatal homogenates, 3H-SCH 23390; read-out: D1 Affinity
measure: Ki
I'd appreciate it if you wrote the number followed by its unit.

Value of Ki reported for the compound Cl.Oc1cc2c(cc1O)[C@@H]1c3cc(Cc4ccccc4)ccc3CN[C@H]1CC2 (relative stereo) [Compound 6e, hydrochloride] is 290 nM
